Species on record: Rattus norvegicus
Assay: Open TG-GATES - Regimen: Daily Repeat
Type: toxicity, organism-based, Sprague-Dawley
Parameters: regimen Daily Repeat, gender Male, age 6 weeks
Conditions: in vivo, po, 300 mg/kg, […], tissue Blood, route gavage, dose level Middle, time 14 day
QUANTITY MEASURED: WBC
Note to self: number, then unit, no commentary.

Take a look at these entries with their results.
- MOLECULE: "COC1=CC(=O)C[C@@H](C)[C@]12Oc1c(Cl)c(OC)cc(OC)c1C2=O [GRISEOFULVIN]"
  WBC: "104.2 x10_2/uL"
- MOLECULE: "COc1ccc2[nH]c([S+]([O-])Cc3ncc(C)c(OC)c3C)nc2c1 (stereo not given) [OMEPRAZOLE]"
  WBC: "96 x10_2/uL"
- MOLECULE: "CCOC(=O)CCC(=O)O[C@H]1[C@H](O[C@@H]2[C@@H](C)[C@H](O[C@H]3C[C@@](C)(OC)[C@@H](O)[C@H](C)O3)[C@@H](C)C(=O)O[C@H](CC)[C@@](C)(O)[C@H](O)[C@@H](C)C(=O)[C@H](C)C[C@@]2(C)O)O[C@H](C)C[C@@H]1N(C)C [ERYTHROMYCIN ETHYLSUCCINATE]"
  WBC: "110.3 x10_2/uL"
- MOLECULE: "CCOc1ccc(NC(=O)CC(C)O)cc1 (stereo not given) [BUCETIN]"
  WBC: "106.6 x10_2/uL"

The record that follows has no WBC shown yet.
Lookup result for NC(N)=Nc1nc(CSCCC(N)=NS(N)(=O)=O)cs1 [FAMOTIDINE] ; measured WBC: 117 x10_2/uL

----------
Exercise: state measured Lym for each of the compounds provided.
Species on record: Rattus norvegicus
Experiment: Open TG-GATES - Regimen: Daily Repeat
Assay type: toxicity, organism-based, Sprague-Dawley
Design: regimen Daily Repeat, gender Male, age 6 weeks
Settings: in vivo, po, 100 mg/kg, […], tissue Blood, route gavage, dose level Low, time 7 day
Give bare numbers, in %.

- COMPOUND: "COC1=CC(=O)C[C@@H](C)[C@]12Oc1c(Cl)c(OC)cc(OC)c1C2=O"
  Lym [%]: 80.4
- COMPOUND: "COc1ccc2[nH]c([S+]([O-])Cc3ncc(C)c(OC)c3C)nc2c1 (stereo not given)"
  Lym [%]: 82
- COMPOUND: "CCOc1ccc(NC(=O)CC(C)O)cc1 (stereo not given)"
  Lym [%]: 77.8

Hi! Can you tell me Lym for each of these compounds?
1. CCOC(=O)CCC(=O)O[C@H]1[C@H](O[C@@H]2[C@@H](C)[C@H](O[C@H]3C[C@@](C)(OC)[C@@H](O)[C@H](C)O3)[C@@H](C)C(=O)O[C@H](CC)[C@@](C)(O)[C@H](O)[C@@H](C)C(=O)[C@H](C)C[C@@]2(C)O)O[C@H](C)C[C@@H]1N(C)C [ERYTHROMYCIN ETHYLSUCCINATE]
2. NC(N)=Nc1nc(CSCCC(N)=NS(N)(=O)=O)cs1

Reply:
1: 84.6; 2: 78.6

----------
Species on record: Rattus norvegicus
Assay: Open TG-GATES - Regimen: Single
Format: toxicity, organism-based, Sprague-Dawley
Parameters: regimen Single, gender Male, age 6 weeks
Settings: in vivo, po, 300 mg/kg, 9 h, tissue Kidney, route gavage, dose level Middle
QUANTITY MEASURED: KIDNEY_L (g)
One number for each entry, in g.

- MOLECULE: "CCOC(=O)CCC(=O)O[C@H]1[C@H](O[C@@H]2[C@@H](C)[C@H](O[C@H]3C[C@@](C)(OC)[C@@H](O)[C@H](C)O3)[C@@H](C)C(=O)O[C@H](CC)[C@@](C)(O)[C@H](O)[C@@H](C)C(=O)[C@H](C)C[C@@]2(C)O)O[C@H](C)C[C@@H]1N(C)C [ERYTHROMYCIN ETHYLSUCCINATE]"
  RESULT UNIT: "g"
  MEAS VALUE: 1

Hi! Can you tell me KIDNEY_L for each of these molecules?
1. COC1=CC(=O)C[C@@H](C)[C@]12Oc1c(Cl)c(OC)cc(OC)c1C2=O
2. NC(N)=Nc1nc(CSCCC(N)=NS(N)(=O)=O)cs1
3. COc1ccc2[nH]c([S+]([O-])Cc3ncc(C)c(OC)c3C)nc2c1 (centres undefined)

Reply:
1
0.9
0.9

----------
Organism: Rattus norvegicus
Assay: Open TG-GATES - Regimen: Single
Type: toxicity, organism-based, Sprague-Dawley
Parameters: regimen Single, gender Male, age 6 weeks
Conditions: in vivo, po, 1000 mg/kg, 9 h, tissue Blood, route gavage, dose level High
QUANTITY MEASURED: MCV (fL)
One number for each entry, in fL.

Hi! Can you tell me MCV for each of these molecules?
1. NC(N)=Nc1nc(CSCCC(N)=NS(N)(=O)=O)cs1 [FAMOTIDINE]
2. COc1ccc2[nH]c([S+]([O-])Cc3ncc(C)c(OC)c3C)nc2c1 (centres undefined) [OMEPRAZOLE]
3. COC1=CC(=O)C[C@@H](C)[C@]12Oc1c(Cl)c(OC)cc(OC)c1C2=O [GRISEOFULVIN]
4. CCOC(=O)CCC(=O)O[C@H]1[C@H](O[C@@H]2[C@@H](C)[C@H](O[C@H]3C[C@@](C)(OC)[C@@H](O)[C@H](C)O3)[C@@H](C)C(=O)O[C@H](CC)[C@@](C)(O)[C@H](O)[C@@H](C)C(=O)[C@H](C)C[C@@]2(C)O)O[C@H](C)C[C@@H]1N(C)C [ERYTHROMYCIN ETHYLSUCCINATE]

Reply:
1. 61.4
2. 61.4
3. 62.8
4. 62.8

----------
Exercise: state measured Ca for each of the compounds provided.
Species on record: Rattus norvegicus
Assay: Open TG-GATES - Regimen: Single
Type: toxicity, organism-based, Sprague-Dawley
Set-up: regimen Single, gender Male, age 6 weeks
Conditions: in vivo, po, 0 mg/kg, 6 h, tissue Plasma, route gavage, dose level Control
One number for each entry, in mg/dL.

Take a look at these entries with their results.
- COMPOUND: "CN(C)CCN(Cc1cccs1)c1ccccn1"
  Ca [mg/dL]: 10
- COMPOUND: "CC1=C(/C=C/C(C)=C/C=C/C(C)=C/CO)C(C)(C)CCC1 [RETINOL]"
  Ca [mg/dL]: 10.9
- COMPOUND: "NNC(=O)c1ccncc1 [ISONIAZID]"
  Ca [mg/dL]: 10.4
- COMPOUND: "Cc1ccc(C)c(OCCCC(C)(C)C(=O)O)c1 [GEMFIBROZIL]"
  Ca [mg/dL]: 11.1

The record that follows has no Ca shown yet.
Lookup result for C[C@@H]1C[C@H]2[C@@H]3CCC4=CC(=O)C=C[C@]4(C)[C@@]3(F)[C@@H](O)C[C@]2(C)[C@@]1(O)C(=O)CO [DEXAMETHASONE] ; measured Ca: 11

----------
Species: Rattus norvegicus
Experiment: Open TG-GATES - Regimen: Single
Assay type: toxicity, organism-based, Sprague-Dawley
Parameters: regimen Single, gender Male, age 6 weeks
Conditions: in vivo, po, 30 mg/kg, 9 h, tissue Blood, route gavage, dose level Middle
QUANTITY MEASURED: WBC (x10_2/uL)
Give bare numbers, in x10_2/uL.

Take a look at these entries with their results.
- SMILES REPR: "CN(C)CCCN1c2ccccc2CCc2ccccc21"
  QUANTITY MEASURED: "WBC"
  MEAS VALUE: 69.2
- SMILES REPR: "CN(C)CCCN1c2ccccc2CCc2ccc(Cl)cc21"
  QUANTITY MEASURED: "WBC"
  MEAS VALUE: 83.2

Hi! Can you tell me WBC for each of these compounds?
1. CC1=C(/C=C/C(C)=C/C=C/C(C)=C/CO)C(C)(C)CCC1
2. CN(C)CCN(Cc1cccs1)c1ccccn1

Reply:
1. 94.3
2. 66.5

----------
Species on record: Rattus norvegicus
Experiment: Open TG-GATES - Regimen: Single
Type: toxicity, organism-based, Sprague-Dawley
Design: regimen Single, gender Male, age 6 weeks
Conditions: in vivo, po, 0 mg/kg, 6 h, tissue Plasma, route gavage, dose level Control
Exercise: state measured LDH for each of the compounds provided.
Give bare numbers, in IU/L.

Hi! Can you tell me LDH for each of these compounds?
1. CCOC(=O)CCC(=O)O[C@H]1[C@H](O[C@@H]2[C@@H](C)[C@H](O[C@H]3C[C@@](C)(OC)[C@@H](O)[C@H](C)O3)[C@@H](C)C(=O)O[C@H](CC)[C@@](C)(O)[C@H](O)[C@@H](C)C(=O)[C@H](C)C[C@@]2(C)O)O[C@H](C)C[C@@H]1N(C)C [ERYTHROMYCIN ETHYLSUCCINATE]
2. C[C@@H]1C[C@H]2[C@@H]3CCC4=CC(=O)C=C[C@]4(C)[C@@]3(F)[C@@H](O)C[C@]2(C)[C@@]1(O)C(=O)CO [DEXAMETHASONE]
3. CN(C)CCCN1c2ccccc2CCc2ccc(Cl)cc21 [CLOMIPRAMINE]

Reply:
138
74.2
90

Hi! Can you tell me LDH for each of these compounds?
1. O=C(CCCN1CCC(O)(c2ccc(Cl)cc2)CC1)c1ccc(F)cc1 [HALOPERIDOL]
2. COc1ccc2[nH]c([S+]([O-])Cc3ncc(C)c(OC)c3C)nc2c1 (stereo not drawn) [OMEPRAZOLE]

Reply:
[92.4, 181.6]

From: ChEMBL document CHEMBL3885861
